This section presents compounds with their documented melting point values.

Below, 3 compounds whose answers are already recorded.
- Compound: "Cc1cccc(C(=O)OC2CCN(Cc3ccccc3)CC2)c1"
  Measured endpoint: "melting point"
  Result: "45 to 46 °C"
- Compound: "COc1ccncc1-c1cncc(OC2SCC(O)C(O)C2O)c1 (centres undefined)"
  Measured endpoint: "melting point"
  Result: "154 °C"
- Compound: "C=CC[C@@H]1C(=O)OC[C@@H]1O[Si](C)(C)C(C)(C)C"
  Measured endpoint: "melting point"
  Result: "48 °C"

Kindly note the recorded melting point for O=C(N[C@H]1CC[C@H](CCN2CCC(c3cccc4c3CCO4)CC2)CC1)c1ccccc1 , which is 220 °C

Kindly note the recorded melting point for O=C1OC(=O)c2cc3ncccc3c3cc([N+](=O)[O-])cc1c23 , which is > 300 °C

Kindly note the recorded melting point for CC1=Nc2ccccc2C=C(c2ccccc2)N1C , which is 144 to 145 °C

Kindly note the recorded melting point for COC(=O)C1(NS(=O)(=O)c2ccc3c(Cl)cnc(NC(=N)N)c3c2)CCOCC1 , which is 245 to 247 °C

Kindly note the recorded melting point for O=[N+]([O-])c1cc(Cl)cnc1N1CCN(C/C=C/c2ccc(C(F)(F)F)cc2)CC1 , which is 129 to 132 °C

Kindly note the recorded melting point for CC(CS)C(=O)N1C(=O)CC[C@H]1C(=O)O (some centres undefined) , which is 101 to 108 °C

Kindly note the recorded melting point for COc1cc(Nc2c(C#N)cnc3cc(-c4csc(CN5CCN(C)CC5)c4)sc23)c(Cl)cc1Cl , which is 224 to 226 °C

Kindly note the recorded melting point for CN1C(=O)c2cnc(-c3ccccc3)nc2N(C(=O)CN2CCCC2)c2ccccc21 , which is 196 °C

----------
This section presents molecules with their documented melting point values.

- Molecule: "COC(=O)c1ccccc1S(=O)(=O)NC(=O)Nc1ncccn1"
  Result: "188 to 192 °C"
- Molecule: "COC1=C(OC)C(=O)C2=C(CCC(CC(=O)O)CC2)C1=O"
  Result: "130 to 132 °C"
- Molecule: "Cc1oc(-c2ccccc2)nc1COc1ccc(OCc2ccccc2)cc1"
  Result: "126 to 127 °C"
- Molecule: "CC(C)(C)C(NC(=O)c1ccc(Cl)cc1)NC(=NC#N)Nc1cccc(Cl)c1 (centres undefined)"
  Result: "158 to 160 °C"
- Molecule: "O=C1CC(c2cccc(Cl)c2)c2cc(C(=O)c3ccc(Cl)cc3)ccc2N1 (centres undefined)"
  Result: "195 °C"
- Molecule: "CC(=O)Oc1ccc(C(C)(C)C)cc1C1(OC(C)=O)C(=O)c2ccccc2C1=O"
  Result: "195 to 196 °C"

Kindly note the recorded melting point for O=C(O)Cn1c(=S)c2ccccc2n(Cc2ccc(Cl)cc2Cl)c1=O , which is 220 to 221 °C

Kindly note the recorded melting point for Fc1ccccc1-c1noc2c(Cl)c(OCc3nnn[nH]3)ccc12 , which is 198 to 200 °C

Kindly note the recorded melting point for CCOC(=O)C1=C(C)NC(CSc2ccccc2)=C(C(=O)OCC)C1c1cccc([N+](=O)[O-])c1 (centres undefined) , which is 92 to 94 °C

----------
Measured endpoint: melting point

Below, 4 compounds whose answers are already recorded.
- Compound: "NCc1ccn(-c2cc3c(cc2[N+](=O)[O-])[nH]c(=O)c(=O)n3C2CCCCC2)c1"
  Result: "> 300 °C"
- Compound: "FC(F)(F)c1cc(Br)c2cccc(Cl)c2n1"
  Result: "62 to 64 °C"
- Compound: "CN(C)C(=O)CC1=C(n2nc(-c3c(-c4ccccc4)nn4ccccc34)ccc2=O)CCCC1"
  Result: "80 to 81 °C"
- Compound: "CCOC(=O)c1cc(NC(=O)C(CSC(C)=O)Cc2ccc(Cl)cc2)c[nH]1 (stereo not given)"
  Result: "141 to 144 °C"

Here is another compound to look at.
Kindly note the recorded melting point for O=S1(=O)NC(C2CCCCC2)=Nc2cccc(-c3ccccn3)c21 , which is 200 to 203 °C

----------
Measured endpoint: melting point (°C)
Only the number, expressed in °C, is required.

- Compound: "Cc1cccc(-c2nc3ccc(OCCCN(C)C)cc3n2Cc2ccccc2C(F)(F)F)c1"
  melting point, °C: 74

Kindly note the recorded melting point for CC1CCCC(C)N1S(=O)(=O)N[C@@H](Cc1ccc(Nc2nccc3cnccc23)cc1)C(=O)O (stereo not given in full) , which is 204

----------
Measured endpoint: melting point

Below, 2 compounds whose answers are already recorded.
- Compound: "COc1ccc(CCc2ccccn2)cc1OCCCCCc1ccccc1"
  melting point: "59 to 62 °C"
- Compound: "CN(Cc1cccc2c1CN(C1CCC(=O)NC1=O)C2=O)C(=O)Nc1cccc(C(F)(F)F)c1 (centres undefined)"
  melting point: "198 to 200 °C"

Kindly note the recorded melting point for CCOC(=O)c1cn(-c2ccc(F)cc2F)c2nc(OS(=O)(=O)c3ccccc3[N+](=O)[O-])c(F)cc2c1=O , which is 157 to 160 °C

Kindly note the recorded melting point for COC(=O)C1=C(C)NC(C)=C(C(=O)NC(C)C)C1c1ccccc1[N+](=O)[O-] (centres undefined) , which is 203 to 206 °C

Kindly note the recorded melting point for CCOC(=O)c1cc2c(cn1)[nH]c1ccc(N3CCCC3)cc12 , which is 259 to 261 °C

Kindly note the recorded melting point for CCN(CC)CC1CN=C(NC(=O)Nc2ccccc2)O1 (centres undefined) , which is 148 °C

Kindly note the recorded melting point for NNC(=O)Cc1cccc(OCCN2CCC(Cc3ccccc3)CC2)c1 , which is 89 to 91 °C

Kindly note the recorded melting point for CSCCN1C(=O)c2ccccc2Oc2nc(Cl)ccc21 , which is 126 to 128 °C

Kindly note the recorded melting point for CC1(C)CCC(C)(C)c2cc(C(=O)c3cccc(I)c3)ccc21 , which is 130 to 131 °C

----------
This section presents molecules with their documented melting point values.

Below, 8 molecules whose answers are already recorded.
- Molecule: "CCOP(C)(=O)CCNS(=O)(=O)c1ccc(C)cc1 (stereo not given)"
  Result: "124 to 126 °C"
- Molecule: "CC(C)CC(C)(C(=O)NC1CCCCCCCCCCNC1=O)c1ccccc1S (stereo not given)"
  Result: "166 to 171 °C"
- Molecule: "CCCc1c(OCCCCCCc2cccc(O)c2O)ccc(C(=O)O)c1OC(C)=O"
  Result: "130 to 132 °C"
- Molecule: "CCCCCCCCCCc1cc2c(s1)NC(=O)CN=C2c1ccccc1C"
  Result: "100 to 102 °C"
- Molecule: "CN(C(=O)c1ccc2nonc2c1)[C@H]1CC[C@H](N=[N+]=[N-])CC1"
  Result: "149 to 150 °C"
- Molecule: "OCC(CO)OCc1ccccc1"
  Result: "38 to 39 °C"
- Molecule: "CCOC(=O)C1=Cc2cc(OCC(=O)c3ccc(Br)cc3)ccc2OC1C(F)(F)F (stereo not given)"
  Result: "130 to 132 °C"
- Molecule: "CCOC(=O)C1(C(=O)OCC)N(Cc2ccc(OC)cc2OC)C(=O)CC1(C)O (stereo not given)"
  Result: "106 to 107 °C"

Kindly note the recorded melting point for Cc1nc2ccccc2cc1NC(=O)N1CCN(c2cccc3ccccc23)CC1 , which is 220 to 222 °C

Kindly note the recorded melting point for Cc1nc([C@@H](Cc2c[nH]c3ccccc23)NC(=O)OC(C)(C)C)oc1C , which is 138 to 140 °C

----------
Measured endpoint: melting point

- Line notation: "CC(C)(C)[S@@](=O)/N=C/c1cc(F)cc(C#N)c1"
  melting point: "93 to 99 °C"
- Line notation: "O=c1ccn(-c2cccc(C(F)(F)F)c2)nc1-c1conc1-c1ccccc1"
  melting point: "217 to 219 °C"
- Line notation: "Brc1cnc(-c2ccc(OCc3ccccc3)cc2)nc1"
  melting point: "153 to 155 °C"
- Line notation: "CC(C)Oc1cc(-n2nc(Cl)n(C(F)F)c2=O)c(Cl)cc1Cl"
  melting point: "115 to 119 °C"
- Line notation: "CCOC(=O)CCc1cc(O)nn1CC"
  melting point: "91 to 92 °C"

Kindly note the recorded melting point for CC(=O)Nc1ccc2c(c1)OCC2 , which is 115 to 118 °C

----------
This section presents compounds with their documented melting point values.

- Compound: "O=S(=O)(O)CCc1cccnc1"
  Result: "275 to 278 °C"
- Compound: "CCCCc1ncc(C=C(Cc2cccs2)C(=O)O)n1Cc1cccc(C(=O)O)c1"
  Result: "243 to 244 °C"

Kindly note the recorded melting point for NS(=O)(=O)c1ccc(N2CCN(Cc3cn4ccccc4n3)CC2)cc1 , which is 238 to 242 °C

Kindly note the recorded melting point for Cc1cc(N2C(=O)NC(C)(C)C2=O)ccc1[N+](=O)[O-] , which is 177 to 178 °C

Kindly note the recorded melting point for CN(C)CC(C)(C)Cn1ccc(-c2ccc(F)cc2)c1-c1ccncc1 , which is 101 to 103 °C
